# target_of_assay: OGA (Homo sapiens)
# Construct: HEK293 cells inducible for P301L mutant human Tau (isoform 2N4R) were established at Janssen; endogenous in cells; host or cells: HEK293 cells inducible for P301L mutant human Tau (2N4R)
# Sequence (O60502 1-916): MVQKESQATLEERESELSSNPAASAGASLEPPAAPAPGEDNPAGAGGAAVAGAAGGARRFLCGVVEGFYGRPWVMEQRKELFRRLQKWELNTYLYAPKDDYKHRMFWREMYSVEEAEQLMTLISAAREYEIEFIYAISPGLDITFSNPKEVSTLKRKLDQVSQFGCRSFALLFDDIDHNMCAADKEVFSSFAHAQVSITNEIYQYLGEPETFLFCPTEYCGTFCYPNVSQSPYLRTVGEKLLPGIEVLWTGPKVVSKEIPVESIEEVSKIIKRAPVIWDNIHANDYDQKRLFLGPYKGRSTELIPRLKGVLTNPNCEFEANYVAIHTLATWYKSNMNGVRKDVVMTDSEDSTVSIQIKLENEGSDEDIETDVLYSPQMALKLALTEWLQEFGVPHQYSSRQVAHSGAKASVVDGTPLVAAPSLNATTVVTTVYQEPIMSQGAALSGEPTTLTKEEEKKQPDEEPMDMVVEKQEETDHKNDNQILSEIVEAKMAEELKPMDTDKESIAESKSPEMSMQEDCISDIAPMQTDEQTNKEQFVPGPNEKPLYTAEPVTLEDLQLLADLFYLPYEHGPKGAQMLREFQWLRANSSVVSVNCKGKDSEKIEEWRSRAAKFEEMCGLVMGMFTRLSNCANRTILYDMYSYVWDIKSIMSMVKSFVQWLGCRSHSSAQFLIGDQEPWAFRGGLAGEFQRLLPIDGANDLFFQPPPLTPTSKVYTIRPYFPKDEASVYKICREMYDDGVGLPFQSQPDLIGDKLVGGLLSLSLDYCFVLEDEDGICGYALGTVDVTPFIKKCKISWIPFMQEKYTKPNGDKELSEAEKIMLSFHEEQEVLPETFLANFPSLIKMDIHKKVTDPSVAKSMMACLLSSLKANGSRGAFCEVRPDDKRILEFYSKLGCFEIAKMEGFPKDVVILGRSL
# method_summary: OGA cellular assay (ICC detection of O-GlcNAcylated proteins in HEK293 cells inducible for P301L mutant human Tau)
# Assay type: cell-based
# condition: HEK293 cells inducible for P301L mutant human Tau, 6 hours incubation; read-out: Cellular hOGA; pEC50 (converted)
assay_endpoint: EC50 (nM)

Below: 3 compounds and their reported EC50.
COc1cc(OC2CCN(C(C)c3ccc4c(n3)OCCO4)CC2)ccn1 (stereo not drawn) : 251
Cc1cc(OC2CCN(C(C)c3nc4c(cc3F)CCO4)CC2)c(Cl)c(C)n1 (stereo not drawn) : 25.1
Cc1cc(OC2CCN(C(C)c3ccc4c(n3)OCCO4)CC2)cc(C2CC2)n1 (stereo not drawn) : 126

[I] Cc1cc(OC2CCN(C(C)c3ccc4c(n3)OCCO4)CC2)c(F)c(C)n1 (stereo not drawn)
[II] Cc1cc(OC2CCN(C(C)c3nc4c(cc3F)OCCO4)CC2)ncc1C#N (stereo not drawn)
Input: Could you kindly indicate whether I or II has the higher EC50 value? Which one? Tell me its label.
Output: I

----------
# target_of_assay: OGA (Homo sapiens)
# Construct: HEK293 cells inducible for P301L mutant human Tau (isoform 2N4R) were established at Janssen; endogenous in cells; host or cells: HEK293 cells inducible for P301L mutant human Tau (2N4R)
# method_summary: OGA cellular assay (ICC detection of O-GlcNAcylated proteins in HEK293 cells inducible for P301L mutant human Tau)
# Assay type: cell-based
# condition: HEK293, HEK293 cells inducible for P301L mutant human Tau, 6 hours incubation; maximum = Thiamet G 200 uM
# Description: HEK293 cells inducible for P301L mutant human Tau (isoform 2N4R) were established at Janssen. Thiamet-G was used for both plate validation (high control) and as reference compound (reference EC50 assay validation). OGA inhibition is evaluated through the immunocytochemical (ICC) detection of O-GlcNAcylated proteins by the use of a monoclonal antibody (CTD110.6; Cell Signaling, #9875) detecting 0-GlcNAcylated residues as previously described (Dorfmueller et al. 2010 Chemistry & biology, 17:1250). […]
assay_endpoint: Emax (%)

Below: 5 compounds and their reported Emax.
Cc1cc(OC2CCN(C(C)c3cc4c(cn3)OCCO4)CC2)cc(C)n1 (stereo not drawn) [Compound 29] : 7
Cc1cc(COC2CCN(C(C)c3ccc4c(n3)OCC4)CC2)cc(C)n1 (stereo not drawn) [Compound 154] : 81
CC(c1nc2c(cc1F)OCCO2)N1CCC(Oc2ccc(C(F)(F)F)nn2)CC1 (stereo not drawn) [Compound 39] : 73
Cc1cncc(OC2CCN(C(C)c3ccc4c(n3)OCCO4)CC2)n1 (stereo not drawn) [Compound 76] : 36
Cc1cc(OC2CCN(C(C)c3cc4nc(C)sc4cc3F)CC2)nc(C)n1 (stereo not drawn) [Compound 38] : 64

[P] Cc1ncccc1OC1CCN(C(C)c2ccc3c(n2)OCCO3)CC1 (stereo not drawn) [Compound 116]
[Q] Cc1nc(OC2CCN(C(C)c3nc4c(cc3F)OCCO4)CC2)ccc1C#N (stereo not drawn) [Compound 112]
Input: Please indicate which has the smaller reported Emax: P , or Q . Which one? Tell me its label.
Output: P

[a] Cc1cncc(OC2CCN(C(C)c3nc4c(cc3F)OCCO4)CC2)n1 (stereo not drawn) [Compound 109]
[b] Cc1cc(OC2CCN([C@H](C)c3ccc4c(n3)OCCO4)CC2)cc(C(F)(F)F)n1 (single isomer, unassigned) [Compound 146]
Input: Could you kindly indicate whether a or b has the higher Emax value? Which one? Tell me its label.
Output: a
(a: 77%, b: 2%)

----------
# target_of_assay: recombinant human Meningioma Expressed Antigen 5 (MGEA5), also referred to as O-GlcNAcase (OGA) (Homo sapiens)
# Construct: Full length OGA enzyme was purchased at OriGene (cat #TP322411); purchased OriGene TP322411
# method_summary: OGA biochemical assay (inhibition of FM-GlcNAc hydrolysis, fluorescence)
# condition: read-out: Enzymatic hOGA, pIC50 (converted)
assay_endpoint: IC50 (nM)

Below: 6 compounds and their reported IC50.
Cc1cnc(OC2CCN(C(C)c3ccc4c(n3)OCCO4)CC2)cn1 (centres unmarked) [Compound 141] : 200
Cc1cc(OC2CCN([C@@H](C)c3ccc4c(n3)OCCO4)CC2)cc(C(F)(F)F)n1 (single isomer, unassigned) [Compound 147] : 25.1
CC(c1nc2c(cc1F)OCCO2)N1CCC(Oc2ccc(C(=O)N(C(C)C)C(C)C)nc2)CC1 (centres unmarked) [Compound 123] : 12.6
Cc1cc(COC2CCN(C(C)c3nc4nc(C)sc4cc3F)CC2)cc(C)n1 (centres unmarked) [Compound 160] : 12.6
COc1cc(OC2CCN(C(C)c3ccc4sc(C)nc4n3)CC2)cc(C)n1 (centres unmarked) [Compound 16] : 25.1
Cc1cc(OC2CCN(C(C)c3nc4c(cc3F)OCCO4)CC2)cc(C(F)F)n1 (centres unmarked) [Compound 63] : 10

[A] CC(c1ccc2c(n1)OCCO2)N1CCC(Oc2ncc(F)cc2F)CC1 (centres unmarked) [Compound 52]
[B] COc1cc(OC2CCN(C(C)c3ccc4c(n3)OCCO4)CC2)cc(C)n1 (centres unmarked) [Compound 14]
Input: Could you kindly indicate whether A or B has the higher IC50 value? Which one? Tell me its label.
Output: A

----------
Overview of recorded EC50 for various compounds
# target_of_assay: OGA (Homo sapiens)
# Construct: HEK293 cells inducible for P301L mutant human Tau (isoform 2N4R) were established at Janssen; endogenous in cells; host or cells: HEK293 cells inducible for P301L mutant human Tau (2N4R)
# method_summary: OGA cellular assay (ICC detection of O-GlcNAcylated proteins in HEK293 cells inducible for P301L mutant human Tau)
# Type: cell-based
# condition: HEK293 cells inducible for P301L mutant human Tau, 6 hours incubation; read-out: Cellular hOGA; pEC50 (converted)

Cc1cc(OC2CCN([C@@H](C)c3nc4c(cc3F)OCCO4)CC2)cc(C)n1 (single isomer, unassigned) : > 1000 nM
Cc1cc(OC2CCN([C@H](C)c3nc4c(cc3F)OCCO4)CC2)nc(C)n1 (single isomer, unassigned) : > 1000 nM
COc1ccc(OC2CCN(C(C)c3ccc4c(n3)OCCO4)CC2)nc1 (centres unmarked) : > 1000 nM
Cc1cc(OC2CCN([C@@H](C)c3ccc4c(n3)OCC4)CC2)cc(C)n1 (single isomer, unassigned) : > 1000 nM
Cc1ncc(OC2CCN(C(C)c3ccc4c(n3)OCCC4)CC2)cn1.Cl (centres unmarked) : > 1000 nM

Input: Consider the compound Cc1ccnc(OC2CCN(C(C)c3ccc4c(n3)OCCO4)CC2)c1 (centres unmarked) and give its measured EC50.
Output: 501 nM

Input: Consider the compound CC(c1ccc2c(n1)OCCO2)N1CCC(Oc2ccc(C(F)(F)F)nc2)CC1 (centres unmarked) and give its measured EC50.
Output: 794 nM

Input: Consider the compound Cc1ccc(OC2CCN(C(C)c3ccc4c(n3)OCCO4)CC2)cn1 (centres unmarked) and give its measured EC50.
Output: 501 nM
